Biological target: T1, Cyno His-GDF15: HIS-tagged cyno GDF15 (cynomolgus, UniProt G7PWZ3 197-308, limits assumed)
T1 construct: not shown: His tag
T1 sequence (looked up): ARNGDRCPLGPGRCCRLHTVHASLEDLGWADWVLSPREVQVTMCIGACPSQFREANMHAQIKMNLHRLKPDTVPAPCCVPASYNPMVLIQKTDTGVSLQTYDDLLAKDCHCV
Experiment: Biacore SPR, IgG captured via anti-human Fc, GDF15 in flow
property-name: kon (M⁻¹ s⁻¹)

1. ABGDF15-A (antibody, human IgG1, kappa, V domains shown, captured through anti-human Fc in the Biacore assay) VH: EVQLVQSGAEVKKPGESLKISCKGSGYSFTDYWISWVRQMPGKGLEWMGIIDPSGSYTIYSPSFQGQVTISADKSISTAYLQWSSLKASDTAMYYCARVSYYGGYFDIWGQGTLVTVSS VL: DIQMTQSPSSLSASVGDRVTITCRASQSISNNLNWYQQKPGKAPKLLIYAASNLQSGVPSRFSGSGSGTDFTLTISSLQPEDFATYYCFQLDHSPFTFGQGTKVEIKR | 2.07e+07
2. ABGDF15-F (antibody, human IgG1, lambda, V domains shown, captured through anti-human Fc in the Biacore assay) VH: EVQLVQSGAEVKKPGESLKISCKGSGYSFTSYWIGWVRQMPGKGLEWMGVIDPSGSYTIYSPSFQGQVTISADKSISTAYLQWSSLKASDTAMYYCARYGRYGTYFDYWGQGTLVTVSS VL: QSVLTQPPSVSGAPGQRVTISCSGSSSNIGVLYVNWYQQLPGTAPKLLIYSNDNRPSGVPDRFSGSKSGTSASLAITGLQAEDEADYYCQSWDSSSNYVFGGGTKLTVLG | 1.26e+07
3. ABGDF15-G (antibody, human IgG1, kappa, V domains shown, captured through anti-human Fc in the Biacore assay) VH: QVQLVQSGAEVKKPGSSVKVSCKASGGTFSSHYINWVRQAPGQGLEWMGGIIPAFGGANYAQKFQGRVTITADESTSTAYMELSSLRSEDTAVYYCARFGSVYVSRYSSYYHMDVWGQGTLVTVSS VL: DIQMTQSPSSLSASVGDRVTITCRASQTIYRSLAWYQQKPGKAPKLLIYGASILQSGVPSRFSGSGSGTDFTLTISSLQPEDFATYYCLQRYTSPFTFGQGTKVEIKR | 5.79e+06
4. ABGDF15-C (antibody, human IgG1, lambda, V domains shown, captured through anti-human Fc in the Biacore assay) VH: QVQLVQSGAEVKKPGSSVKVSCKASGGTFRSYAVSWVRQAPGQGLEWMGGIIPIFGTANYAQKFQGRVTITADESTSTAYMELSSLRSEDTAVYYCARGPIIMGYQFGLFDHWGQGTLVTVSS VL: SYELTQPPSVSVSPGQTASITCSGDNIGSHIVSWYQQKPGQSPVLVIYDKSNRPSGIPERFSGSNSGNTATLTISGTQAMDEADYYCQTWDSIGSVVFGGGTKLTVLG | 4.96e+06
5. ABGDF15-E (antibody, human IgG1, lambda, V domains shown, captured through anti-human Fc in the Biacore assay) VH: EVQLVQSGAEVKKPGESLKISCKGSGYSFTSYWIGWVRQMPGKGLEWMGVIDPGGSYTIYSPSFQGQVTISADKSISTAYLQWSSLKASDTAMYYCARYGRYGTYFDYWGQGTLVTVSS VL: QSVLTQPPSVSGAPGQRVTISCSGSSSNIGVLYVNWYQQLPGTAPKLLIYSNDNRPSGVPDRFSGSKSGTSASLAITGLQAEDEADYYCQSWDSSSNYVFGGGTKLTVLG | 1.26e+07

Taken from patent US20190135908A1.
